Test: NCI Yeast Anticancer Drug Screen. Data for the mec2-1 strain (AID 157)
Settings: S. cerevisiae mec2-1 strain, at 50.0 µM (retest, dose inferred, filed as 5.0), active compounds read high
About 79,000 compounds went through this panel and 15% of them were active in at least one assay; those are over-represented in the sample as a whole.
assay endpoint: growth inhibition (%)
Please give a number only; it is taken to be in %.

Worked cases, answers included:
compound | growth inhibition / %
Cc1ccc2nc(N/N=C/c3ccc(C)s3)cc(C)c2c1 | 99
OCC(O)C(O)C(O)C(O)c1nc2ccccc2[nH]1 (configuration not stated) | -30
NNc1nnc(-c2ccccc2)nc1Cc1ccccc1 | 90
Cc1cccc(N2CCN(C(=O)/C(=C/c3ccccc3)NC(=O)c3ccccc3)CC2)c1 | -26
CC1C=CN(N(C)C)C2=C1C(=O)c1cnccc1C2=O (configuration not stated) | 95

Consider the record given below.
query: Quick one: growth inhibition for Cn1c(COc2ccc(/C=N/NC(=O)CCC(=O)N/N=C/c3ccc(OCc4c[n+]5ccccc5n4C)cc3)cc2)c[n+]2ccccc12 ?
result: 12

====

Test: NCI Yeast Anticancer Drug Screen. Data for the mlh1 strain (AID 171);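 further: 0% = growth of vehicle-treated control cultures of the same strain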
Conditions: S. cerevisiae mlh1 strain growth inhibition; at 3.7 µM; active compounds read high
This is part of a sample that, as a whole, favours compounds with a hit. Of some 79,000 tested, about 15% had one in any assay.
assay endpoint: growth inhibition (%)
Please give a number only; it is taken to be in %.

Worked cases, answers included:
compound | experimental value
N#C/C(=C1C=C/C(=N\O)C(Cl)=C\1)c1ccccc1 | 4
Nc1ccc2cc(Br)c3ccccc3c2c1 | -1
COc1ccc(CCN2C(=O)C=CC2=O)cc1OC | 4
CCCCCCCCCC/C=C\CC(=O)O | -4
CCCCCC(=O)C(C)(c1nc2n(c1O)/C(=N/C(=O)Nc1ccc(Cl)cc1)N=N2)c1nc2n(c1O)/C(=N/C(=O)Nc1ccc(Cl)cc1)N=N2 | -1
COc1ccc2c(Cc3c4ccccc4cc4ccccc34)cncc2c1O | 7
O=C(Cc1ccccc1F)NC1=C(Cl)C(=O)c2ccccc2C1=O | 11
O=C(O)CN(CCNC(=O)OCC1c2ccccc2-c2ccccc21)CCNC(=O)OCC1c2ccccc2-c2ccccc21 | -3

query: Quick one: growth inhibition for COc1ccc(/C=C2\CCc3ccccc3C2=O)cc1OC ?
result: 29

query: Record: O=C(O)NCC1CCCCC1 (tested in a mixture with another compound)
result: -6

query: Record: CCC(C)C(=O)OCC(=O)c1ccc(-c2ccccc2)cc1 (stereo not drawn)
result: 0

query: Record: O=C(CSS(=O)(=O)O)c1ccccc1
result: 1

query: Record: CC(=O)O/N=C/c1c2ccccc2cc2ccccc12
result: -1

query: Record: CCC1SC(=S)N(c2ccc(Cl)cc2)C1=O (stereo not drawn)
result: -10

query: Record: O=C1C(Br)=CC(Br)(Br)C=C1Br
result: -10

query: Record: O=C(Nn1c(-c2ccccc2)nc2ccccc2c1=O)c1ccc(Cl)cc1
result: 1

query: Record: Cc1c2ccncc2c(C)c2c1oc1ccccc12
result: 16

query: Record: O=CC(=C(I)I)c1ccccc1
result: 32

query: Record: O=C(O)[C@H]1[C@@H](C2CCCCC2)O[C@@H](C2CCCCC2)O[C@H]1C(F)(F)F
result: -1

query: Record: CC[C@@]1(OC(=O)CN(C)C)C(=O)OCc2c1cc1n(c2=O)Cc2cc3ccccc3nc2-1
result: 2

query: Record: CCOC(=O)c1sc2[n+](c1C)C(=O)/C(=C/c1cc(OC)c(OC)c(OC)c1)S2
result: 9

query: Record: c1ccc(C2=NNC3c4ccccc4-c4ccccc4N3C2)cc1 (stereo not drawn)
result: 9

query: Record: O=C(/C(=C/c1ccccc1)CBr)c1ccccc1
result: 11

====

Experiment: NCI Yeast Anticancer Drug Screen. Data for the CLN2oe strain (AID 163);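 further: 0% = growth of vehicle-only control cultures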
Details: S. cerevisiae CLN2oe strain, at 11.0 µM, active compounds read high
Procedure: Growth inhibition of yeast strains with defined genetic alterations is measured as a screen for potential anti-cancer activity. Selected strains with alterations in DNA damage repair or cell cycle control were exposed to compounds and growth inhibition was measured relative to vehicle treated controls. The strain used in this assay is CLN2oe
This is part of a sample that, as a whole, favours compounds with a hit. Of some 79,000 tested, about 15% had one in any assay.
assay endpoint: growth inhibition (%)
Please give a number only; it is taken to be in %.

Worked cases, answers included:
compound smiles | experimental value
CNc1ccc2[nH]c3ccccc3c2c1 | 0
CCCCCC(=O)C(C)(c1nc2n(c1O)/C(=N/C(=O)Nc1ccc(Cl)cc1)N=N2)c1nc2n(c1O)/C(=N/C(=O)Nc1ccc(Cl)cc1)N=N2 | -5
c1cncc(C(Nc2cccc3cccnc23)Nc2cccc3cccnc23)c1 | 3

query: Quick one: growth inhibition for NNc1nnc(-c2ccccc2)nc1Cc1ccccc1 ?
result: 11

====

Test: NCI Yeast Anticancer Drug Screen. Data for the wt2 strain (AID 169);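 further: 0% = growth of vehicle-treated yeast cultures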
Details: S. cerevisiae wt2 strain growth inhibition; at 11.0 µM
Compounds without any hit were thinned out: in the full panel of roughly 79,000, 15% have a hit. Activity calls are given as the source filed them. No stated cut-off is given here; in the data, active means growth inhibition above about 70%; inactive means the rest.
Please state which outcome applies, choosing from Y (active), N (inactive)

Consider the following illustrative entries.
compound | label value
Nc1c([N+](=O)[O-])cc2c3c(cccc13)CC2 | N
O=CC(=C(I)I)c1ccccc1 | N
O=C(O)CN(CCNC(=O)OCC1c2ccccc2-c2ccccc21)CCNC(=O)OCC1c2ccccc2-c2ccccc21 | Y
CNC(=O)OCc1c(COC(=O)NC)c(C)n(-c2ccc(Cl)c(Cl)c2)c1C | N
CC(C)(C(=O)NN)c1ccccc1 | N
Cc1nc2ccc(Br)cc2c(=O)n1-c1ccc(NC2OCC(O)C(O)C2O)cc1 (stereo not given) | N
O=c1c(Br)cc2c(-c3ccccc3)c3cc(Br)c(O)c(Br)c3oc-2c1Br | N
Cc1cccc[c]1[Sn]([Cl])([S]/C(C#N)=N/N=C/c1ccc(N(C)C)cc1)[c]1ccccc1C | N
CCOC(=O)/C(O)=C(/C=N/C(=S)Nc1c(CC)cccc1CC)C(=O)OCC | N

query: GET /call?item= C=Cc1c(C)c(O)cc2c1-c1ccc(O)c(C)c1CC2 returns the recorded outcome of this test.
result: N

====

Listed below: growth inhibition values for each entry.
Test: NCI Yeast Anticancer Drug Screen. Data for the mec2-1 strain (AID 157)
Details: S. cerevisiae mec2-1 strain, at 33.0 µM, active compounds read high
Compounds without any hit were thinned out: in the full panel of roughly 79,000, 15% have a hit.
Please give a number only; it is taken to be in %.

query: Quick one: growth inhibition for Cc1ccc2c(/C=C/c3ccc(N(C)C)cc3)ccnc2c1C ?
result: -16

====

Assay: NCI Yeast Anticancer Drug Screen. Data for the mlh1 rad18 strain (AID 175)
Conditions: S. cerevisiae mlh1 rad18 strain growth inhibition; at 50.0 µM
The panel holds about 79,000 compounds, 15% with a hit somewhere; the sample as a whole holds those more often. The source made the active and inactive calls. Cut-off read from the data, not from the text of the source: active = growth inhibition above about 70%; inactive = the rest.
Please state which outcome applies, choosing from y (active), n (inactive)

molecule | label value
[Cl][Pt+2][Cl].[NH-]CC1(C[NH-])CCCCC1 | y
O=C(CSS(=O)(=O)O)c1ccccc1 | n
O=C1C=CC(=O)N1c1ccc(Br)cc1Cl | y

query: GET /call?item= CCCCCCCCCCCCCCCCOCC(Cl)COP(=O)(O)OP(=O)(O)OCC1OC(n2cnc3c(N)ncnc32)C(O)C1O (stereo unspecified) returns the recorded outcome of this test.
result: n

query: Record: Cc1ccc(Cl)c2c(=O)c3ccccc3[nH]c12
result: y

query: Record: S=C1NC2=C(CSC/C2=C\c2ccc(Cl)cc2)C(c2ccc(Cl)cc2)N1 (stereo unspecified)
result: y

query: Record: Oc1ccc(Br)cc1C=Nc1cccc(C(F)(F)F)c1
result: n

query: Record: O=C1C(C(O)(C(F)(F)F)C(F)(F)F)CCC1C(O)(C(F)(F)F)C(F)(F)F (stereo unspecified)
result: n

query: Record: C[n+]1c(-c2ccc(NC(=O)c3ccc(C(=O)Nc4ccc(-c5cn6ccccc6[n+]5C)cc4)cc3)cc2)cn2ccccc21
result: y

query: Record: OC(c1ccc(Br)cc1)(c1cccs1)C1CC1 (stereo unspecified)
result: y

query: Record: O=C1C=CC(=Nc2ccc3c(c2)Cc2cc(Cl)ccc2-3)O1
result: y

====

Assay: NCI Yeast Anticancer Drug Screen. Data for the mec2-1 strain (AID 157)
Conditions: S. cerevisiae mec2-1 strain, at 11.0 µM, active compounds read high
The panel holds about 79,000 compounds, 15% with a hit somewhere; the sample as a whole holds those more often.
Listed below: growth inhibition values for each entry.
Please give a number only; it is taken to be in %.

query: Quick one: growth inhibition for Cc1nc2ccc(Br)cc2c(=O)n1-c1ccc(NC2OCC(O)C(O)C2O)cc1 (centres undefined) ?
result: 23

query: Record: CC(O)CN1C(=O)c2cccc3cc([N+](=O)[O-])cc(c23)C1=O (centres undefined)
result: 2

query: Record: CC[C@]1(O)C[C@H]2CN(CCc3c([nH]c4ccccc34)[C@@](C(=O)OC)(c3cc4c(cc3OC)N(C)[C@H]3[C@@](O)(C(=O)OC)[C@H](OC(C)=O)[C@]5(CC)C=CCN6CC[C@]43[C@@H]65)C2)C1
result: -2

query: Record: O=C1c2ccccc2C2CCC1c1ccccc12 (centres undefined)
result: 3

query: Record: CC[C@@]1(OC(=O)CN(C)C)C(=O)OCc2c1cc1n(c2=O)Cc2cc3ccccc3nc2-1
result: 89

query: Record: CN(C)c1ccc(C(c2ccc(Cl)cc2)c2ccc(N(C)C)cc2)cc1
result: 97

query: Record: C[Si](C)(C)Cc1ccccc1C(=O)O
result: 8

query: Record: O=S(=O)(O)CC[S][Sn]([S]CCS(=O)(=O)O)([c]1ccccc1)[c]1ccccc1
result: 81

query: Record: CCOC(=O)/C(O)=C(/C=N/C(=S)Nc1c(CC)cccc1CC)C(=O)OCC
result: 10
